src = ChEMBL document CHEMBL4619702

# measurement target: Nonstructural protein 3 (Zika virus, UniProt A0A024AXB9)
# Sequence (A0A024AXB9 whole entry): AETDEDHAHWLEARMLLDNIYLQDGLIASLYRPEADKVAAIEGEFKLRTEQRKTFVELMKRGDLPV
# test protocol: Inhibition of Zika virus NS2B-NS3 protease by cell based assay
Field: EC50. Provide a value for each of the compounds that follow.

Req: Look up EC50 with Nonstructural protein 3 (Zika virus, UniProt A0A024AXB9) for this compound: CC[C@H](NC(=O)[C@H](C)NC)C(=O)N1C[C@@H](O)C[C@H]1Cc1c(-c2[nH]c3cc(F)ccc3c2C[C@@H]2C[C@H](O)CN2C(=O)[C@H](CC)NC(=O)[C@H](C)NC)[nH]c2cc(F)ccc12
Resp: 300 to 600 nM

Req: Look up EC50 with Nonstructural protein 3 (Zika virus, UniProt A0A024AXB9) for this compound: O=C1OC2(c3ccccc31)c1cc(I)c(O)c(I)c1Oc1c2cc(I)c(O)c1I
Resp: 600 nM

Req: Look up EC50 with Nonstructural protein 3 (Zika virus, UniProt A0A024AXB9) for this compound: CO[C@@H]1[C@@H](OC(N)=O)[C@@H](O)[C@H](Oc2ccc3c(O)c(NC(=O)c4ccc(O)c(CC=C(C)C)c4)c(=O)oc3c2C)OC1(C)C
Resp: 24800 nM

Req: Look up EC50 with Nonstructural protein 3 (Zika virus, UniProt A0A024AXB9) for this compound: CC(C)C[C@H]1C(=O)N2CCC[C@H]2[C@]2(O)O[C@](NC(=O)[C@@H]3C=C4c5cccc6[nH]c(Br)c(c56)C[C@H]4N(C)C3)(C(C)C)C(=O)N12
Resp: 13000 nM

Req: Look up EC50 with Nonstructural protein 3 (Zika virus, UniProt A0A024AXB9) for this compound: Oc1cccc(-c2c3nc(c(-c4cccc(O)c4)c4ccc([nH]4)c(-c4cccc(O)c4)c4nc(c(-c5cccc(O)c5)c5ccc2[nH]5)CC4)C=C3)c1
Resp: 22 nM

* * *

# measurement target: Nonstructural protein 3 (Zika virus)
# test protocol: Binding affinity to Zika virus NS2B-NS3 protease
endpoint name: pKd
Kindly note that pKd refers to -log10 of the concentration in mol/L and answer with the value alone.

Req: Form field: reported pKd of CN[C@@H](C)C(=O)N[C@H]1CC[C@H]2CC[C@@H](C(=O)NC(c3ccccc3)c3ccccc3)N2C1=O
Resp: 5.70

* * *

# measurement target: UniProt A0A024AXB9
# test protocol: Allosteric inhibition of Zika virus NS2B-NS3 protease
endpoint name: pIC50
Kindly note that pIC50 refers to -log10 of the concentration in mol/L and answer with the value alone.

Req: Form field: reported pIC50 of C[C@@H]1CN(CC(=O)N2CC(C)(C)c3ncc(Cc4ccc(F)cc4)cc32)[C@@H](CN2CCOC[C@H]2C)CN1
Resp: 6.09

* * *

# measurement target: UniProt A0A024AXB9
# test protocol: Inhibition of Zika virus NS2B-NS3 protease
Kindly apply the following: 1 if IC50 is less than 2000 nM, -1 in every other case.

Req: Is 2000 nM strictly greater than the molecule's reported IC50? molecule: Cc1ccc(C(=O)Nc2ccc(S(=O)(=O)O)c3cc(S(=O)(=O)O)cc(S(=O)(=O)O)c23)cc1NC(=O)c1cccc(NC(=O)Nc2cccc(C(=O)Nc3cc(C(=O)Nc4ccc(S(=O)(=O)O)c5cc(S(=O)(=O)O)cc(S(=O)(=O)O)c45)ccc3C)c2)c1
Resp: -1

Req: Is 2000 nM strictly greater than the molecule's reported IC50? molecule: CN[C@@H](C)C(=O)N[C@H](C(=O)N1CCC[C@H]1C(=O)Nc1sc(-c2ncco2)nc1-c1ccccc1)C1CCCCC1
Resp: 1

Req: Is 2000 nM strictly greater than the molecule's reported IC50? molecule: CN[C@@H](C)C(=O)N[C@H]1CC[C@H]2CC[C@@H](C(=O)NC(c3ccccc3)c3ccccc3)N2C1=O
Resp: 1

Req: Is 2000 nM strictly greater than the molecule's reported IC50? molecule: CN[C@@H](C)C(=O)N[C@H]1CCCC[C@H]2CC[C@@H](C(=O)NC(c3ccccc3)c3ccccc3)N2C1=O
Resp: 1

Req: Is 2000 nM strictly greater than the molecule's reported IC50? molecule: O=C1OC2(c3ccccc31)c1cc(I)c(O)c(I)c1Oc1c2cc(I)c(O)c1I
Resp: 1

Req: Is 2000 nM strictly greater than the molecule's reported IC50? molecule: CC(C)C[C@H]1C(=O)N2CCC[C@H]2[C@]2(O)O[C@](NC(=O)[C@@H]3C=C4c5cccc6[nH]c(Br)c(c56)C[C@H]4N(C)C3)(C(C)C)C(=O)N12
Resp: -1

Req: Is 2000 nM strictly greater than the molecule's reported IC50? molecule: CO[C@@H]1[C@@H](OC(N)=O)[C@@H](O)[C@H](Oc2ccc3c(O)c(NC(=O)c4ccc(O)c(CC=C(C)C)c4)c(=O)oc3c2C)OC1(C)C
Resp: -1

Req: Is 2000 nM strictly greater than the molecule's reported IC50? molecule: Oc1cccc(-c2c3nc(c(-c4cccc(O)c4)c4ccc([nH]4)c(-c4cccc(O)c4)c4nc(c(-c5cccc(O)c5)c5ccc2[nH]5)CC4)C=C3)c1
Resp: 1

* * *

# measurement target: Genome polyprotein (West Nile virus, UniProt P06935)
# Sequence (P06935 1371-1501 limits assumed): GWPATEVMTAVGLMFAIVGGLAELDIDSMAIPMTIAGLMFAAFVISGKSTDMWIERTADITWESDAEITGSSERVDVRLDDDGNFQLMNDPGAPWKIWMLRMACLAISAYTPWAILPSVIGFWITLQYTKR
# Sequence (P06935 1502-2120 limits assumed): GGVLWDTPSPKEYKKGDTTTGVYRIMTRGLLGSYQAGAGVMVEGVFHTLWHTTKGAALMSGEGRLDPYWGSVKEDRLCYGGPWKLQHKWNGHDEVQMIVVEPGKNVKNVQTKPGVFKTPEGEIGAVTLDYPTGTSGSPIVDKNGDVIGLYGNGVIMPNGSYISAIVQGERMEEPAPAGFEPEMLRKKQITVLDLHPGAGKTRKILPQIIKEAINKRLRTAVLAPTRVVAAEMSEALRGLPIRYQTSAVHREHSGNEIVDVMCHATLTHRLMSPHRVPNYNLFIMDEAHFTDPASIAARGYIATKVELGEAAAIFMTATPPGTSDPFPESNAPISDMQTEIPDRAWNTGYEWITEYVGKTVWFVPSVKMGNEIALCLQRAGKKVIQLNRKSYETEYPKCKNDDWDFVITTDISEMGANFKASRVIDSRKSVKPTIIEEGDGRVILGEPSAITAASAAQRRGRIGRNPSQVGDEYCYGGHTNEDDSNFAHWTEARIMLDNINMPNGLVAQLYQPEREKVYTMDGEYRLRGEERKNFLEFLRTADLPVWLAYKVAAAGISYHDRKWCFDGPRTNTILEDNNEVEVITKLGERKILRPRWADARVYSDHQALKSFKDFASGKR
endpoint name: pIC50
Kindly note that pIC50 refers to -log10 of the concentration in mol/L and answer with the value alone.

Req: Form field: reported pIC50 of CN[C@@H](C)C(=O)N[C@H]1CC[C@H]2CC[C@@H](C(=O)NC(c3ccccc3)c3ccccc3)N2C1=O
Resp: 5.72
